Values were extracted from BindingDB's records for doi:10.1111/cbdd.12530.

system: Dihydroorotate dehydrogenase (quinone), mitochondrial (Homo sapiens, UniProt Q02127)
Sequence (Q02127 whole entry): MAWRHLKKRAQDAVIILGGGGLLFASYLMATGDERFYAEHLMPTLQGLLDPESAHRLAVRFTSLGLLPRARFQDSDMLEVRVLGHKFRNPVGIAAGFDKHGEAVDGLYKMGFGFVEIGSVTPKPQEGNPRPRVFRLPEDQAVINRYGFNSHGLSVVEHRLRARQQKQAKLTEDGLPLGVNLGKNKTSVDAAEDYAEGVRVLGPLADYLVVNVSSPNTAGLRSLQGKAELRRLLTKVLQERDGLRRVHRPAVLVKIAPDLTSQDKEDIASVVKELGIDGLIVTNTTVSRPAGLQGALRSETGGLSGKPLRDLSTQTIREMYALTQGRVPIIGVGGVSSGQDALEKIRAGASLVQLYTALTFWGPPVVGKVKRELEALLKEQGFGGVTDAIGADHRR
experimental-readout: IC50

input: Lookup: IC50 / Dihydroorotate dehydrogenase (quinone), mitochondrial (Homo sapiens, UniProt Q02127) / `O=C1N[C@@H](Cc2ccccc2)C(=O)N2CCC[C@@H]12`
output: > 50 µM
